All values here come from patent US10428140B2.

hEphA2-SEAP-: absorbance at 450 nm, percentage with respect to hEphA4-SEAP-His as 100% values by entry
Molecular target: T1, human EphA2 (Homo sapiens, UniProt P29317)
T1 construct: a protein of the extracellular region of each human Eph receptor fused with the SEAP protein and the His tag; made in house; host or cells: Expi293F cells (culture supernatant)
T1 sequence (P29317 24-537 limits assumed): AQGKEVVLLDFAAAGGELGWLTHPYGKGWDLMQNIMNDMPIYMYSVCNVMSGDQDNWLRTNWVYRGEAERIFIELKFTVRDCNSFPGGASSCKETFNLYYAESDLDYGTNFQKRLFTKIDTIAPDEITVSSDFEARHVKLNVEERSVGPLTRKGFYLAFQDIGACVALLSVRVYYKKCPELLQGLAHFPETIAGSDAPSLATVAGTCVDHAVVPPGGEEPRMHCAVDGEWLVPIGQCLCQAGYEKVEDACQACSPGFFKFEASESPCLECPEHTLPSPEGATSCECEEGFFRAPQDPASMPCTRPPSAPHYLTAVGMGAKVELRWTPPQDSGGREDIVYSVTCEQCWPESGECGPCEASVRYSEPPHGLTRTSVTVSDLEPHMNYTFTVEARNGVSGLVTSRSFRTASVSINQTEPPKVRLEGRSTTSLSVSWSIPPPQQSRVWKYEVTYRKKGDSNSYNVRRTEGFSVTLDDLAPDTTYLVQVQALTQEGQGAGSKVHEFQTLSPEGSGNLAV
Experiment: Selectivity ELISA of humanized antibodies for human Eph receptor
Format: binding
Settings: coated protein 1 nM
The reply should contain only the number, in %.

| MOLECULE | UNIT LABEL | VALUE OBSERVED |
| --- | --- | --- |
| 95 (antibody, V domains shown, constant regions without entry; synthetic humanized antibody light chain variable region sequence; synthetic humanized antibody heavy chain variable region sequence) VL: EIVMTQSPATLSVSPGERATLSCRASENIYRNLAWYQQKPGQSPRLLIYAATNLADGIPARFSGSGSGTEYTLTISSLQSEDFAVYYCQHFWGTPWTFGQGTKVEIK VH: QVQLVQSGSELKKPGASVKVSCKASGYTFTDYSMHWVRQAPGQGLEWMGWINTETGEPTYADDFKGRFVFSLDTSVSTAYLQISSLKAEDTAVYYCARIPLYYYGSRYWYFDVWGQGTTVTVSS | % | 4.2 |

In the following, a different molecule is considered.
Give hEphA2-SEAP-: absorbance at 450 nm, percentage with respect to hEphA4-SEAP-His as 100% for the following molecule: 156 (antibody, V domains shown, synthetic humanized antibody heavy chain variable region sequence; synthetic humanized antibody light chain variable region sequence) VH: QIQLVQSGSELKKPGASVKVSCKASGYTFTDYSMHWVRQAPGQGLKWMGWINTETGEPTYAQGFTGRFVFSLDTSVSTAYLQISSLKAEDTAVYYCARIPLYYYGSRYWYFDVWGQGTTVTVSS VL: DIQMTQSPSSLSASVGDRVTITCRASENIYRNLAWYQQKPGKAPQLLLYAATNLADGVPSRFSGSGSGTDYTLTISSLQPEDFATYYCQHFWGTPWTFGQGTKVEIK
5.5
